Hey, just so you know, these numbers are from the supplement of paper PMC10567573.

Hi there, I'd appreciate the recorded protein stability index for every entry that follows.
B1: ZER1 (parent)
chain: FDGPEAWGVCEPQREEVEERMWAA

- Variants of: B1
- assay-method-text: protein stability index of a GFP-peptide fusion (GPS, HEK-293T) (PSI 1-6); higher = more stable;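 also: lentivirally expressed fusions sorted by FACS into six bins by GFP to DsRed ratio, PSI derived from sequencing read proportions per bin multiplied by bin number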
- study-conditions: c terminus: a fixed tail appended

Q: What measured protein stability index goes with FDGPEAWGVCEPQREEVEERSWAA [M21S] ?
A: 2.38

Q: Next: FDGPEAWGVCEPQREEVEERMWNA [A23N]
A: 2.93

Q: Next: FDGPEAWGVCEPQREEVEERWWAA [M21W]
A: 2.46

Q: Next: FDGPEAWGACEPQREEVEERMWAA [V9A]
A: 3.21
